src = the RepoRT retention time repository

I'd appreciate it if you could supply LC retention time values for the items below.
- Assay remarks: RP, Waters ACQUITY UPLC BEH C18, 50 × 2.1 mm, 1.7 µm, 40 °C, 0.6 mL/min, estimated dead time 0.18 min; A: water + 0.1% formic acid, pH 3; B: acetonitrile + 0.1% formic acid, pH 3; gradient (min/%B) 0/5 7/100 8/100
- Conditions: stereoisomer not certain
Number first, unit second: that is the form wanted.

Request: Value lookup for LC retention time; key = O=C1CC(c2ccc(O)cc2)Oc2cc3c(c(O)c21)C(C(=O)c1ccc(O)cc1O)C(c1ccc(O)cc1)O3 (centres undefined)
Result: 2.78 min

Request: Likewise for COC1=CC(=O)C2(c3cc(=O)c4c(O)cc(O)cc4o3)C(CC=C(C)C2C[C@@]2(O)C(C)(O)CC[C@H]3C(C)(C)C[C@H](O)C[C@@]32C)C1=O (some centres undefined) ?
Result: 1.09 min

Request: Likewise for CCC1CN(C)CC2Cc3c([nH]c4ccccc34)C(=O)CC12 (centres undefined) ?
Result: 1.71 min

Request: Likewise for COc1ccc(C2Oc3c(c(O)cc(O)c3C3C(=O)c4c(O)cc(O)cc4OC3c3ccc(O)cc3)C(=O)C2O)cc1O (centres undefined) ?
Result: 1.69 min
